# Tested on: MCF7
# assay summary: NCI tumour cell line growth inhibition, 48 h
Calls of active or inactive are those of the source. Rule as the data show it: active = GI50 up to about 1.1 µM and inactive = higher.
Could you please pick one outcome from this set? TRUE for active, FALSE for inactive

Look up the recorded call for O=C(CCc1ccc(O)c(O)c1)NCCc1ccc(O)c(O)c1 in this test.
FALSE

For COc1ccc(/C=C2\C(=O)NC(=O)c3ccccc32)cc1OC , what call appears in the results of this test?
FALSE

Record lookup: outcome of this test for CC(NC(=O)OC(C)(C)C)C(=O)C(N)=O (stereo not drawn) ?
FALSE

What did this assay record as the result for C=C1c2nc3ccccc3n2C=C(c2ccc(C)cc2)N1c1ccccc1 ?
FALSE

State the result this test recorded for C(=N\c1cc2cc(Sc3ccccc3)ccc2[nH]1)/c1ccccc1 .
FALSE

Dear colleague, could you share the recorded outcome for Cc1cc(-c2nc3cc(F)ccc3s2)ccc1NC(=O)C(C)N (stereo not drawn) when you have a moment?
TRUE

What classification did CC(=O)Oc1cc2c(cc1OC(C)=O)OCC(c1ccc(C)cc1)C2 (stereo not drawn) end up with in this test?
FALSE

What outcome does the record of this test show for O=C(Cc1ccccc1)NNc1nc(NNC(=O)c2ccncc2)nc(Nc2ccc([N+](=O)[O-])cc2)n1 ?
FALSE

Could you check what this test reported for CCCc1nc(Cl)nc(Cl)c1Cl ?
TRUE

Called result for CN(C)C(=O)C(F)(F)C(c1ccccc1)C1C(=O)N(C)C(=O)N(C)C1=O (stereo not drawn)
FALSE

How was CC1=CC(=O)C(=CN2C(=O)/C(=C\c3cccnc3)NC2=S)C(=O)O1 classified in this test?
FALSE

# fetch the recorded call for CCN(CC)C(=S)SC(C(=O)Nc1nnc(-c2ccccc2)o1)c1ccccc1 (stereo not drawn) here
FALSE

Please let me know the test result on file for O=C1C(Cl)=C(Cl)C(=O)C(CCNc2nccs2)=C1Cl .
FALSE

Check the results log: what was the call for O=[As](O)(O)c1ccc(NCc2ccccc2)cc1 ?
FALSE

Hi, do you know how CCOc1cc(NC(C)=O)ccc1C(=O)NN1C(=O)C(Cl)C1c1ccccc1 (stereo not drawn) came out in this test?
FALSE

In this assay, the call recorded for CC(C)C(/C=C/c1ccccc1)=N\NC(=S)NN was what?
FALSE

Could you check what this test reported for O=C(c1ccccc1)N1OCCC1Nc1ccc(Br)cc1 (stereo not drawn) ?
FALSE

Recorded call for Cc1ccc(S(=O)(=O)N/N=C2/C3CC4CCC2C4C3)cc1 (stereo not drawn) ?
FALSE

What was the test verdict on CN(C)Cc1c[nH]c2ncnc(O)c12 ?
FALSE

Check the results log: what was the call for COc1ccc(/C=N/n2c(C)n[nH]c2=O)cc1 ?
FALSE

Recorded test outcome, item CCNCC(=O)O[C@]1(CC)C(=O)OCc2c1cc1n(c2=O)Cc2cc3ccccc3nc2-1
TRUE

Identify the outcome logged in this assay for the compound shown: CC1(C)C=C(/C=N/Nc2ccc([N+](=O)[O-])cc2)C(C#N)=C(O)C1(C#N)C#N
FALSE

Which outcome was entered for the compound Cn1c(NN)nc(-c2ccc([N+](=O)[O-])cc2)c(C#N)c1=O in this test?
FALSE

* * *

# System: HT-29
# assay summary: NCI tumour cell line growth inhibition, 48 h
Calls of active or inactive are those of the source. No stated cut-off is given here; in the data, active = GI50 up to about 1.1 µM and inactive = higher. Non-standard residues stand in square brackets, D forms with d. Residues, ends and D or L forms follow the SMILES beside them. ΔPro = O=C(O)[CH]1C=CCN1
For each record, write down the corresponding GI50.

Could you tell me which GI50 is on file for COc1ccc(C(=C(Cl)c2ccccc2)c2ccc(OC)cc2)cc1 ?
11.9 µM (inactive)

Consider the compound CCc1c[n+]([O-])c(C)cc1[N+](=O)[O-] and give its measured GI50.
82.8 µM (inactive)

For CN(CCCNC(=O)c1nn(-c2ccc(Cl)cc2Cl)c2c1Cc1ccccc1-2)CCCNC(=O)c1nn(-c2ccc(Cl)cc2Cl)c2c1Cc1ccccc1-2 , what is its reported GI50?
1.73 µM (inactive)

// returns reported GI50 for input CC(C)=CCC/C(C)=C/CC/C(C)=C/CC/C(C)=C/CC/C(C)=C/CC/C(C)=C/CC/C(C)=C/CC/C(C)=C/CC/C(C)=C/CO [SOLANESOL]
> 100 µM (inactive)

Would you mind telling me what GI50 value was observed for NS(=O)(=O)OCCCCCCCOS(N)(=O)=O ?
504 µM (inactive)

For the compound CCOC(=O)C(NC(=O)CC)(Nc1ccccc1F)C(F)(F)F (centres undefined) , what GI50 is on record?
> 100 µM (inactive)

Param item = C1CNCCNCCN1 ; retrieve measured GI50.
> 100 µM (inactive)

Look up GI50 for this compound: CC(C)(C)C1CCC(CI)(N=[N+]=[N-])CC1 (centres undefined)
> 100 µM (inactive)

What GI50 value was documented for this compound, COc1ccccc1NC(=O)C1=C(C)NC(C)=C(C(=O)Nc2ccccc2OC)C1c1ccc(N(C)C)cc1 ?
45.4 µM (inactive)

# get_value(readout='GI50', item= NC(=O)N/N=C/C(/C=N/NC(N)=O)[N+](=O)[O-] )
> 100 µM (inactive)

Field request: GI50 | item: CCCCCCCCCCCCCC1=C(O)C(=O)C(CC2=C(O)C(=O)C(CCCCCCCCCCCCC)=C(O)C2=O)=C(O)C1=O
> 100 µM (inactive)

I am curious: what GI50 value has been reported for Cc1cn([C@@H]2O[C@H](CO[Si](C)(C)C(C)(C)C)[C@]3(O[C@H]3C(=O)NN)[C@H]2O[Si](C)(C)C(C)(C)C)c(=O)[nH]c1=O ?
2.9 µM (inactive)

Fill in: GI50 of Cc1c(/C=N/NC(=S)Nc2ccc(Cl)cc2)c(=O)n(-c2ccccc2)n1C is ___
> 100 µM (inactive)

If you can, please state the reported GI50 value of COc1cc(-c2oc3c(OC)c(O)c(OC)c(O)c3c(=O)c2OC)ccc1O .
68.1 µM (inactive)

I would be grateful if you could share the reported GI50 for Cc1c(C(=O)OCc2ccccc2)[n+]([O-])c2ccccc2[n+]1[O-] .
60.8 µM (inactive)

Record request: GI50 value, item CCOC(=O)c1csc(NC(=O)CN2CCN(C)CC2)n1
> 100 µM (inactive)

Using the record for C=C(Br)C(C)(Br)CCC(Br)C(C)(C)Br (centres undefined) , report its GI50.
38.8 µM (inactive)

Entry CN1CCN(C(=S)N(C(=O)c2cccs2)C2CCCCC2)CC1 : reported GI50 = ?
> 100 µM (inactive)

What measured GI50 goes with Oc1ccc(C(O)(c2ccccc2)c2ccccc2)c2ccccc12 ?
2.77 µM (inactive)

// GI50 lookup, key: CN(C)CCN1C(=O)c2cccc3cc([N+](=O)[O-])cc(c23)C1=O [MITONAFIDE]
0.301 µM (active)

Give the measured GI50 of CCC1C(NC(=O)OC)C(=O)N1[C@@H](C)c1ccccc1 (some centres undefined) .
> 100 µM (inactive)

Quick check: GI50 of COc1cc(/C=N/n2c(Cc3ccc(Cl)cc3)n[nH]c2=O)cc(OC)c1OC ?
> 100 µM (inactive)

Query: GI50; subject: COc1cc(C)cc2c1c(=O)c1ccccc1n2C
28.7 µM (inactive)

Quick one: GI50 for COC(=O)c1c(CC(Cc2ccc3c(c2)CCCC3)C(=O)O)ccc2c1CCCC2 (centres undefined) ?
33 µM (inactive)

Which GI50 value is on record for CC(C)C(/C=C/c1ccccc1)=N\NC(=S)NN ?
98.2 µM (inactive)

Reported GI50 for COC(=O)C(=Cc1cc(OC)c(OC)c(OC)c1-c1cc2c(cc1C(C)=O)OCO2)C(=O)OC : what is it?
40.6 µM (inactive)

Which GI50 value belongs to COc1cc(O)c(C(C)=O)c(O)c1 ?
> 100 µM (inactive)

Bench note: what GI50 did C[C@H]1OC(=O)[C@@H]2N=NN(Cc3ccccc3)[C@H]12 show?
> 100 µM (inactive)

For the compound shown here, Cc1ccc(NC(=O)C(=O)C(C(=O)/C=C/c2ccccc2)C2OC(=O)c3ccccc32)c(C)c1 (centres undefined) , give the reported GI50.
> 100 µM (inactive)

Item under review: CC1=C/C(=N\OCC(=O)O)CC(c2ccc(C(C)C)cc2)C1 (centres undefined) . Reported GI50?
16.6 µM (inactive)

Could you share which GI50 value was measured for COc1cc(-c2cc(=O)c3cc4c(=O)cc(-c5cc(OC)c(OC)c(OC)c5)oc4cc3o2)cc(OC)c1OC ?
> 100 µM (inactive)

Need GI50 of C[C@H](NC(=O)c1ccc(CNC(=O)/C=C/c2cccc(Oc3ccccc3)c2)cc1)c1ccccc1 , thanks.
> 100 µM (inactive)

Which GI50 value is on record for COc1cc(/C=C2/C[C@H]3[C@@H]4CC=C5C[C@@H](O)CC[C@]5(C)[C@H]4CC[C@]3(C)NC2=O)cc(OC)c1OC ?
24 µM (inactive)

I would be grateful if you could share the reported GI50 for O=C(O)C1C=CCN1C(=O)C1C=CCN1C(=O)C1C=CCN1 (centres undefined) (H-[ΔPro]-[ΔPro]-[ΔPro]-OH; configuration not given here) .
> 100 µM (inactive)

Tell me the measured GI50 of Cc1noc(-c2ccc(C(=O)O)[nH]2)c1Br , please.
> 100 µM (inactive)

Recorded GI50 of O=c1c2ccccc2oc2c1ccc1ncccc12 , please.
14.5 µM (inactive)

May I ask what GI50 has been recorded for O=C(Nc1ccccc1)c1cc(S(=O)(=O)Nc2n[nH]c(=O)[nH]2)c(SSc2cc(Cl)c(C(=O)Nc3ccccc3)cc2S(=O)(=O)Nc2n[nH]c(=O)[nH]2)cc1Cl ?
> 100 µM (inactive)

May I ask what GI50 has been recorded for O=S(=O)(c1ccccc1)C1CN(Cc2ccccc2)CCN(Cc2ccccc2)C1 ?
24.5 µM (inactive)

Endpoint output: GI50 of C(=N\c1cc2cc(Sc3ccccc3)ccc2[nH]1)/c1ccccc1 . Value?
> 12.5 µM (inactive)
